Value source: patent US20260356804A1

# measured_on: human Nav1.8/b3 (Homo sapiens)
# Construct: expressed in transfected cells; host or cells: CHO
# Sequence (Q9Y5Y9 whole entry): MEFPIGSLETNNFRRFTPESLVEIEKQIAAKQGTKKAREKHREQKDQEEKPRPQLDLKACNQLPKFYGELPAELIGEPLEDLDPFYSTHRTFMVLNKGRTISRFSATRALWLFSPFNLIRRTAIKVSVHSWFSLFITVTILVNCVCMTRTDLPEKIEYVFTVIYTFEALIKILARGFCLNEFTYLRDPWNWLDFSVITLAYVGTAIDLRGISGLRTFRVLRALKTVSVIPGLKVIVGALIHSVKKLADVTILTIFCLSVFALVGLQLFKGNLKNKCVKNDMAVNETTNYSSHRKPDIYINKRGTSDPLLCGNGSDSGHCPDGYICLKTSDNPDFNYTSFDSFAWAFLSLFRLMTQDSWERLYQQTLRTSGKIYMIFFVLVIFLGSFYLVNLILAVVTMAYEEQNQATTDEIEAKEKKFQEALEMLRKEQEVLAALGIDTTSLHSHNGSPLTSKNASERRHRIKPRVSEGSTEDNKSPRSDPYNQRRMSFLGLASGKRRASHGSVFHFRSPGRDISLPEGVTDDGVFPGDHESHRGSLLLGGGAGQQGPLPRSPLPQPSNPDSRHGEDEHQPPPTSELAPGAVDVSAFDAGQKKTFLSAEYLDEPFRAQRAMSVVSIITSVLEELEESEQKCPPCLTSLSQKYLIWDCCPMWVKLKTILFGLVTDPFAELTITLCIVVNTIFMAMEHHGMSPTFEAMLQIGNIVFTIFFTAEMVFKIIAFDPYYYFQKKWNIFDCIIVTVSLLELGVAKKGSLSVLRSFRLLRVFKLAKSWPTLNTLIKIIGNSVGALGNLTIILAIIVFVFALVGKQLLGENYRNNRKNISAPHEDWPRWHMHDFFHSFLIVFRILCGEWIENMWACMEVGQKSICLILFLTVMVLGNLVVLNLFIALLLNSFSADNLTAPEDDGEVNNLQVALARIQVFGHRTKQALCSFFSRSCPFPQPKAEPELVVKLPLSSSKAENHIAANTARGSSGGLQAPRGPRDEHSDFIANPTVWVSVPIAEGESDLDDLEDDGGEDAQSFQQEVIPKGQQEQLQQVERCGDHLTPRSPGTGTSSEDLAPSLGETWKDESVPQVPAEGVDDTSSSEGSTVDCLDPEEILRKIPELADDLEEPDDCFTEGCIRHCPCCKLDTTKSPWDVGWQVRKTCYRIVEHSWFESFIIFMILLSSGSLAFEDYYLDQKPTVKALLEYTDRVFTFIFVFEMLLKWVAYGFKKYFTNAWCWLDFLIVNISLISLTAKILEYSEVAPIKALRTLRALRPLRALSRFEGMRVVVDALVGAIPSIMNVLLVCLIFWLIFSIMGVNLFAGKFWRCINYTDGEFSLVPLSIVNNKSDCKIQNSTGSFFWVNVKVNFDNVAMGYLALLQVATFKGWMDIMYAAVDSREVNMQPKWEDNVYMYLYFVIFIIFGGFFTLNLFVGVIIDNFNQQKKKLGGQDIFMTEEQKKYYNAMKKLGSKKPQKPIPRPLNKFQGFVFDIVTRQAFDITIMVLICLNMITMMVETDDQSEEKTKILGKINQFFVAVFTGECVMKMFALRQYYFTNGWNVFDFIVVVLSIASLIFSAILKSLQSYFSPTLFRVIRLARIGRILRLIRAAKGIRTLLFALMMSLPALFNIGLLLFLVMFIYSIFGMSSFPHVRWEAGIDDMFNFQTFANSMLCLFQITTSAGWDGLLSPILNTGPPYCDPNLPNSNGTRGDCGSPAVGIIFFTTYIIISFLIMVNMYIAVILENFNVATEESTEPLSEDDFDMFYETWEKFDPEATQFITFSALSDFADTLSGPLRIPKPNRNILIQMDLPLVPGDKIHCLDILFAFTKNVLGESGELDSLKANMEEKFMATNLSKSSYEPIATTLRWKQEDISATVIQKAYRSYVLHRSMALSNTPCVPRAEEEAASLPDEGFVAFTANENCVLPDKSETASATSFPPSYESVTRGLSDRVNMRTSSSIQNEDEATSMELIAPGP
# Sequence (Q9NY72 23-215 partner): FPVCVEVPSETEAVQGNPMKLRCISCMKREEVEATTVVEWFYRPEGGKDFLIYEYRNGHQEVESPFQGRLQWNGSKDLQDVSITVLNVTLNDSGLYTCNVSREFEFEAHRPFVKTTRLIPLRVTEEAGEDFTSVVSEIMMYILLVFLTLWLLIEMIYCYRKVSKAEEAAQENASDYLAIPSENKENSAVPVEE
# procedure_summary: Compound Profiling Human NaV1.8/β3 Cell Line—SyncroPatch384PE Assay (automated patch clamp, stably transfected CHO cells)
# Type: cell-based
# experimental_parameters: P2 (IC50, inactivated state block), P2 measurement, inactivated state block; Nav1.8/b3 CHO cells, inactivation step −35 mV 10 sec; third set of compounds
Reported IC50 values are given for each entry in this list.

>  <molecule>
COc1cc(C#N)ccc1Oc1ncc(-c2cn(C)nc2C)c(C)c1C(=O)Nc1cccc([S@](C)(=N)=O)c1 [Example 27C]

>  <IC50>
50 to 100 nM

$$$$
>  <molecule>
Cc1nc(F)ccc1Oc1ncc(-c2ccc(F)c(F)c2)c(C)c1C(=O)Nc1cccc(S(C)(=N)=N)c1 [Example 124C]

>  <IC50>
5 to 50 nM

$$$$
>  <molecule>
Cc1nc(F)ccc1Oc1ncc(C(F)(F)F)c(C)c1C(=O)Nc1ccnc([S@](C)(=N)=O)c1 (single isomer, unassigned) [Example 11C]

>  <IC50>
5 to 50 nM

$$$$
>  <molecule>
Cc1nc(F)ccc1Oc1ncc(-c2ccc(C(F)F)cc2)c(C)c1C(=O)Nc1cccc([S@](C)(=N)=O)c1

>  <IC50>
5 to 50 nM

$$$$
>  <molecule>
Cc1nc(F)ccc1Oc1nc(C(F)(F)F)c(Cl)c(C)c1C(=O)Nc1ccnc([S@](C)(=N)=O)c1 [Example 100C]

>  <IC50>
5 to 50 nM

$$$$
>  <molecule>
CCCc1cnc(Oc2ccc(F)nc2C)c(C(=O)Nc2cccc([S@](C)(=N)=O)c2)c1C [Example 103C]

>  <IC50>
50 to 100 nM

$$$$
>  <molecule>
Cc1nc(F)ccc1Oc1ncc(C2CCC2)c(C)c1C(=O)Nc1ccnc([S@](C)(=N)=O)c1 [Example 98C]

>  <IC50>
5 to 50 nM

$$$$
